# System name: T1, I-AniI (Aspergillus nidulans, UniProt P03880 237-488)
# T1 sequence: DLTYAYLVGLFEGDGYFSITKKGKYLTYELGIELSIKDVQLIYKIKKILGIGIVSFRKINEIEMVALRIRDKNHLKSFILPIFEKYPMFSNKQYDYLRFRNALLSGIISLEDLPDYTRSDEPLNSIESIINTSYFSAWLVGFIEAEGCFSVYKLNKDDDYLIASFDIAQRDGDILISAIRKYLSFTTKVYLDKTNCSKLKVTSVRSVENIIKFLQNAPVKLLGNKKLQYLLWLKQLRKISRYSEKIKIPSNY
# Test description: ITC
Measured parameter: pKd
Field pKd (float): negative decimal logarithm of the concentration in molar.

get_value(item= I-AniI WT site (dsDNA) DNA 1: CCTTCCCTGAGGAGGTTTCTCTGTAAACCCTTCC DNA 2: GGAAGGGTTTACAGAGAAACCTCCTCAGGGAAGG , readout=pKd) returns 7.02

get_value(item= I-AniI WT-OPT site (dsDNA) DNA 1: CCTTCCCTGAGGAGGTTACTCTGTTAACCCTTCC DNA 2: GGAAGGGTTAACAGAGTAACCTCCTCAGGGAAGG , readout=pKd) returns 8.10
